Measured pIC50 values are reported for all entries that follow.
- target system: HIV-1 RT enzyme (Human immunodeficiency virus type 1 group M subtype B, UniProt P04585)
- Construct: Full-length wild-type and 2 mutant RT proteins were expressed in Escherichia coli BL21(DE3) cells and purified; made in house; host or cells: Escherichia coli BL21(DE3)
- measurement protocol: RT Polymerase Assay
- Type: biochemical
# reply with the number alone; pIC50 is -log10 of concentration in mol/L

// below: answered compounds
C#CC1(COP(=O)(O)OP(=O)(O)OP(=O)(O)O)CC(n2cnc3c(=O)[nH]c(N)nc32)CC1O (racemic) [Example (+/−) 47] = 6.49
N#CC1(COP(=O)(O)OP(=O)(O)OP(=O)(O)O)CC(n2cnc3c(=O)[nH]c(N)nc32)CC1O (racemic) [Example (+/−) 75] = 6.35
C#CC1(COP(=O)(O)OP(=O)(O)OP(=O)(O)O)CC(n2cc(C)c(=O)[nH]c2=O)CC1O (racemic) [Example (+/−) 48] = 6.94

Next compound, please.
Input: For the compound shown here, Cc1cn(C2CC(O)C(C#N)(COP(=O)(O)OP(=O)(O)OP(=O)(O)O)C2)c(=O)[nH]c1=O (racemic) [Example (+/−) 76] , give the reported pIC50.
Output: 6.28

----------
- Test system: HIV-1 (H9IIIB virus)
- measurement protocol: Viking assay: antiviral potency in a multiple round HIV-1 infection assay (MT4-GFP cells)
- Assay type: cell-based
- experimental setup: Human immunodeficiency virus 1, MT4-GFP cells, 10% normal human serum; inhibition of reproductive ratio R0; read-out: Viking, IC50 (10% NHS)
measurement name: pIC50
API: returns pIC50 as number; meaning -log10 of concentration in mol/L.

C#C[C@]1(CO)C[C@@H](n2cnc3c(Cl)nc(N)nc32)C[C@@H]1O (racemic) [Example (+/−) 14] = 5.25
C#C[C@]1(CO)C[C@@H](n2ccc3c(N)nc(Cl)nc32)C[C@@H]1O (racemic) [Example (+/−) 22] = 4.65
N#C[C@@]1(CO)C[C@H](n2cnc3c(N)nc(F)nc32)C[C@H]1O (single isomer, unassigned) [Example 73B] = 4.96

Input: Can you look up the measured pIC50 of C#C[C@]1(CO[P@@](=O)(N[C@@H](C)C(=O)OC(C)C)Oc2ccccc2)C[C@@H](n2cnc3c(OCC)nc(N)nc32)C[C@@H]1O (mixture of isomers) [Example 39A and 39B] for me?
Output: 7.57

Input: Please give the measured pIC50 for this compound: C#C[C@]1(CO)C[C@@H](n2cnc3c(N)nc(F)nc32)C[C@@H]1O (racemic) [Example (+/−) 13]
Output: 5.27

Input: What value of pIC50 has been recorded for this entry: C#C[C@]1(CO)C[C@@H](n2cnc3c(=O)[nH]c(N)nc32)C[C@@H]1O (racemic) [Example (+/−) 26]
Output: 6.71

----------
- Test system: MT4-GFP cells
- measurement protocol: CTG assay: cytotoxicity in CellTiter-Glo Luminescent Cell Viability Assay
- Assay type: cell-based
- experimental setup: CC50, MT4-GFP cells, 10% normal human serum, 48h incubation
measurement name: CTG

Cc1cn([C@H]2C[C@H](N=[N+]=[N-])[C@@H](CO)O2)c(=O)[nH]c1=O [AZT, 3′-azido-3′-deoxythymidine, reference compound] = >8.4 µM

Input: Entry C#C[C@]1(CO)C[C@@H](n2cnc3c(N)nc(Cl)nc32)C[C@@H]1O (racemic) [Example (+/−) 18] : reported CTG = ?
Output: > 42 µM

----------
pIC50 reference
- Tested on: HIV-1 (H9IIIB virus)
- measurement protocol: Viking assay: antiviral potency in a multiple round HIV-1 infection assay (MT4-GFP cells)
- Assay type: cell-based
- experimental setup: Human immunodeficiency virus 1, MT4-GFP cells, 10% normal human serum; inhibition of reproductive ratio R0; read-out: Viking, IC50 (10% NHS)
In plain terms, pIC50 is the concentration in mol/L turned into minus its base-10 logarithm.

C#C[C@]1(CO)C[C@@H](n2cnc3c(N)nc(Cl)nc32)C[C@@H]1O (racemic) [Example (+/−) 18] = 4.72
C#C[C@]1(CO)C[C@@H](n2cnc3c(Cl)nc(Cl)nc32)C[C@@H]1O (racemic) [Example (+/−) 17] = 4.76
C#C[C@@]1(CO[P@@](=O)(N[C@@H](C)C(=O)OC(C)C)Oc2ccccc2)C[C@H](n2cnc3c(OCC)nc(N)nc32)C[C@H]1O (single isomer, unassigned) [Example 39A] = 6.32
Cc1cn([C@H]2C[C@H](O)[C@@](C#N)(CO)C2)c(=O)[nH]c1=O (racemic) [Example (+/−) 69] = 4.80
C#C[C@]1(CO[P@@](=O)(N[C@@H](C)C(=O)OC(C)C)Oc2ccccc2)C[C@@H](n2cnc3c(OCC)nc(N)nc32)C[C@@H]1O (single isomer, unassigned) [Example 39B] = 8.23

Input: For the molecule shown here, Cc1cn([C@H]2C[C@H](N=[N+]=[N-])[C@@H](CO)O2)c(=O)[nH]c1=O [AZT, 3′-azido-3′-deoxythymidine, reference compound] , give the reported pIC50.
Output: 7.43

Input: Value lookup for pIC50; key = C#C[C@@]1(CO)C[C@H](n2cnc3c(N)nc(Cl)nc32)C[C@H]1O (single isomer, unassigned) [Example 18A]
Output: 4.60

Input: Form field: reported pIC50 of N#C[C@]1(CO)C[C@@H](n2cnc3c(=O)[nH]c(N)nc32)C[C@@H]1O (racemic) [Example (+/−) 61]
Output: 6.00

Input: Look up pIC50: C#C[C@]1(CO)C[C@@H](n2cnc3c(N)nc(Cl)nc32)C[C@@H]1O (single isomer, unassigned) [Example 18B]
Output: 4.93

Input: Could you share which pIC50 value was measured for C#C[C@]1(CO)C[C@@H](n2cnc3c(OCC)nc(N)nc32)C[C@@H]1O (racemic) [Example (+/−) 30] ?
Output: 6.21

----------
CTG values, listed per item
- Test system: MT4-GFP cells
- measurement protocol: CTG assay: cytotoxicity in CellTiter-Glo Luminescent Cell Viability Assay
- Assay type: cell-based
- experimental setup: CC50, MT4-GFP cells, 10% normal human serum, 48h incubation

# annotated cases, reported CTG shown
C#C[C@]1(CO)C[C@@H](n2cnc3c(Cl)nc(Cl)nc32)C[C@@H]1O (racemic) [Example (+/−) 17] = 19.9 µM
C#C[C@@]1(CO)C[C@H](n2cnc3c(N)nc(Cl)nc32)C[C@H]1O (single isomer, unassigned) [Example 18A] = > 42 µM

Input: CTG of C#C[C@]1(CO)C[C@@H](n2cnc3c(N)nc(F)nc32)C[C@@H]1O (racemic) [Example (+/−) 13] on MT4-GFP cells?
Output: > 42 µM

Input: Form: Entry = C#C[C@]1(CO)C[C@@H](n2cnc3c(Cl)nc(N)nc32)C[C@@H]1O (racemic) [Example (+/−) 14] | System = MT4-GFP cells | CTG = ____
Output: > 42 µM
